target: Human Cav 2.2 channels (Homo sapiens, UniProt Q00975); assay: Fluorescent assay for CaV2.2 channels using potassium depolarization (VIPR/FLIPR); assay type: cell-based; settings: FLIPR data; inactivated state; read-out: CAv2.2 IC50 Inact.
Sequence (Q00975 whole entry): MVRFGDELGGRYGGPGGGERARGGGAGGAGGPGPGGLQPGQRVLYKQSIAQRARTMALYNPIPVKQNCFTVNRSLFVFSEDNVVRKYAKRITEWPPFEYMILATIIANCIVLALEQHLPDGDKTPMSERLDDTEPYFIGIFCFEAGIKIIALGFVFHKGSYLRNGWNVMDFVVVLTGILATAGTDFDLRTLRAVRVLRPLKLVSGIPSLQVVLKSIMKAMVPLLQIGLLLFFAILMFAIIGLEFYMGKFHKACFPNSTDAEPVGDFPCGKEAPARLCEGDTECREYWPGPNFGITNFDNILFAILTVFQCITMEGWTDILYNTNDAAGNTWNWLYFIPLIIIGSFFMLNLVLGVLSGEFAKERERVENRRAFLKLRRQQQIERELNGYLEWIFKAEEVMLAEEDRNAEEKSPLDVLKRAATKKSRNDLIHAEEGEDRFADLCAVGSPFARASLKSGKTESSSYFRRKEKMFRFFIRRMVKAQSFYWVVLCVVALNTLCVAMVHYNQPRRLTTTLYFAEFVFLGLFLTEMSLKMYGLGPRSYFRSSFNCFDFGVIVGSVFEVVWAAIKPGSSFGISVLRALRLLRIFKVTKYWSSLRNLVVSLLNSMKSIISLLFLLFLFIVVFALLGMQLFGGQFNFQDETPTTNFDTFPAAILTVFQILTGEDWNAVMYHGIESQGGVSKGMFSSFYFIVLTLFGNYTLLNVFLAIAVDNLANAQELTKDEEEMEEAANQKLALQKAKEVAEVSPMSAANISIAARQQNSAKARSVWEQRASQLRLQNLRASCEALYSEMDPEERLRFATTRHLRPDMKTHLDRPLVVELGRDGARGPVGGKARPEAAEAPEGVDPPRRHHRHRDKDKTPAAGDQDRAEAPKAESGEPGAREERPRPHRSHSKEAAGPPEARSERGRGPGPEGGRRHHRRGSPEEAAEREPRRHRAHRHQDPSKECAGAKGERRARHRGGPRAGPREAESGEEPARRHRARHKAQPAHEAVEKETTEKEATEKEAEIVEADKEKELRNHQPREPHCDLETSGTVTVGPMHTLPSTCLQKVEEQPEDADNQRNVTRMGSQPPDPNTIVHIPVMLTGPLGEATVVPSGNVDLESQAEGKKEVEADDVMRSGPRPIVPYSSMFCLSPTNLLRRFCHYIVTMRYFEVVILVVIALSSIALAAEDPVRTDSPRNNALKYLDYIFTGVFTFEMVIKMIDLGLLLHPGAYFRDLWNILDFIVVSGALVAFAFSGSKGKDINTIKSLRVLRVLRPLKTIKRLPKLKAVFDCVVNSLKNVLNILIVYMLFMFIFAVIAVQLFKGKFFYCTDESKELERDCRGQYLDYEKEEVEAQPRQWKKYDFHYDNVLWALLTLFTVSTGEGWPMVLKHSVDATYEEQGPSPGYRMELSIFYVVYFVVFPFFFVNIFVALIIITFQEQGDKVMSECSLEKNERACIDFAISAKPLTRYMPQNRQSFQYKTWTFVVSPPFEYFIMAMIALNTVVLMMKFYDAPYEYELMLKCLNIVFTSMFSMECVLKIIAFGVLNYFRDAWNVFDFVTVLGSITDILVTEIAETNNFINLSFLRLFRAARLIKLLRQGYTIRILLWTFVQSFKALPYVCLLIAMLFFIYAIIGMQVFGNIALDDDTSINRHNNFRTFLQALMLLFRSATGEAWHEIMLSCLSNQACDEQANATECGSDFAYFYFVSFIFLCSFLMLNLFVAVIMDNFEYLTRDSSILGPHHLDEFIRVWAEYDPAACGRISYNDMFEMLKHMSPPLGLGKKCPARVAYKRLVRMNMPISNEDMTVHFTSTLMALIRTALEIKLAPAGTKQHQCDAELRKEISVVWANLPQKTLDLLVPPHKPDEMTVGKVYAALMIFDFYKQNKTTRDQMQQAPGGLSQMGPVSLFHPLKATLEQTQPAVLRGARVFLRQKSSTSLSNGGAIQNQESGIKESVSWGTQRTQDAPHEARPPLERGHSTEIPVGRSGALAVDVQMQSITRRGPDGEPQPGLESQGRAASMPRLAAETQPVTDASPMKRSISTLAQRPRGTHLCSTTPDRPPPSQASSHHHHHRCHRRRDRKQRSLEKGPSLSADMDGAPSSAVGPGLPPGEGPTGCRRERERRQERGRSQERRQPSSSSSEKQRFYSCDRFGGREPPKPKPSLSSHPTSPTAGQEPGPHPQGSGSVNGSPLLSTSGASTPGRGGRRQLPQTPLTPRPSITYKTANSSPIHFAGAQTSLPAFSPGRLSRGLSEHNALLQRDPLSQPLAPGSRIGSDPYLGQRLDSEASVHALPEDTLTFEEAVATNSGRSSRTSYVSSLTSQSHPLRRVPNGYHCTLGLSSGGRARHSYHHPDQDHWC
Sequence (P54289 25-1103 partner): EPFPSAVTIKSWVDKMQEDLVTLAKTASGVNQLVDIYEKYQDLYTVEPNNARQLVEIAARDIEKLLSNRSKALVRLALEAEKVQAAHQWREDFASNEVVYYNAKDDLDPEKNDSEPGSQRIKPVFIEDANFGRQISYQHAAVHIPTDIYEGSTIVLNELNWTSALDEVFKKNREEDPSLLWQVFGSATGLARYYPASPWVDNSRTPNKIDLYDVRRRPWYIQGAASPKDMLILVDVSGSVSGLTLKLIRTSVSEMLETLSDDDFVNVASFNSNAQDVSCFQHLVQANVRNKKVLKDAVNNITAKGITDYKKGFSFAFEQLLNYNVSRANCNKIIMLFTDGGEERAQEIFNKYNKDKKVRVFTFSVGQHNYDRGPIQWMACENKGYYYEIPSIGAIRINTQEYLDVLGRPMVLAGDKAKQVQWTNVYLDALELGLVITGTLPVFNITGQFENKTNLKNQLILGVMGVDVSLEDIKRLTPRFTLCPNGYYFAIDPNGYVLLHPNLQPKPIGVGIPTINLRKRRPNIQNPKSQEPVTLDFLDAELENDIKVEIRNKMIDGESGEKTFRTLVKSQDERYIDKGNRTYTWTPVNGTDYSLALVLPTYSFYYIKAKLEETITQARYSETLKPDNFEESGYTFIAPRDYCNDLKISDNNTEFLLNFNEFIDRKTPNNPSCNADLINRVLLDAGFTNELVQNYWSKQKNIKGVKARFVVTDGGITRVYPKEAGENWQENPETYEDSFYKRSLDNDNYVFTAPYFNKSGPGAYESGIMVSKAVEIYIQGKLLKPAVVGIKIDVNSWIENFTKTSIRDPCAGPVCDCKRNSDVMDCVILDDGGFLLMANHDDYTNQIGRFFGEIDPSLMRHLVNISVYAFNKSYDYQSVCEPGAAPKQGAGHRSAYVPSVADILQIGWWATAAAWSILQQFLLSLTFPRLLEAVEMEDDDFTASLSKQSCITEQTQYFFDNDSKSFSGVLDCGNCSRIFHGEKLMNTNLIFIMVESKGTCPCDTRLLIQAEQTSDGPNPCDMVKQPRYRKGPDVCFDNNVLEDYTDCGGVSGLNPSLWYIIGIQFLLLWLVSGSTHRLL
Sequence (P54284 whole entry partner): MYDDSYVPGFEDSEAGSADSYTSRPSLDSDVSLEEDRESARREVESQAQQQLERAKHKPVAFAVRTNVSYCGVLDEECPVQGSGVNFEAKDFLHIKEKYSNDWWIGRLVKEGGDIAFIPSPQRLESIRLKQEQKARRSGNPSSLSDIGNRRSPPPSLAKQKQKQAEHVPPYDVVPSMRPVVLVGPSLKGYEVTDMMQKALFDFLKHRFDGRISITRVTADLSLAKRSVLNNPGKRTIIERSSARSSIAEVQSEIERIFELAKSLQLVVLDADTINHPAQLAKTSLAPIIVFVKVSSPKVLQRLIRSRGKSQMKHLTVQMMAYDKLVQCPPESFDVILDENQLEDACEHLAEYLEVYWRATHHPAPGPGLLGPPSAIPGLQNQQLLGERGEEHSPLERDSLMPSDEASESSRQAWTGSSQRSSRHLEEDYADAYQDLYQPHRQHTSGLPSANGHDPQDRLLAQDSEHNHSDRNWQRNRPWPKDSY
recorded.metric: IC50 (nM)

compound: O=C(NC[C@H]1C[C@H](S(=O)(=O)c2cccc(Cl)c2)C1)c1ccc(OCC(F)(F)F)nc1 [Compound 775]
quantitative.result: 5780
--
compound: CC(C)([C@H]1C[C@H](NC(=O)c2ccc(S(C)(=O)=O)cc2Cl)C1)S(=O)(=O)c1cccc(C(F)(F)F)c1 [Compound 680]
quantitative.result: 1310
--
compound: CC(C)([C@H]1C[C@H](NS(=O)(=O)c2ccc(OC(F)(F)F)cc2)C1)S(=O)(=O)c1cccc(C(F)(F)F)c1 [Compound 669]
quantitative.result: 960
--
compound: CC(C)(C[C@H]1C[C@H](NC(=O)[C@H]2CCCC[C@H]2N)C1)S(=O)(=O)c1cccc(C(F)(F)F)c1 [Compound 742]
quantitative.result: 1050
--
compound: CC(C)([C@H]1C[C@@H](C(=O)Nc2ccc(C(F)(F)F)nc2)C1)S(=O)(=O)c1cccc(C(F)(F)F)c1 [Compound 759]
quantitative.result: 480

a = CC(C)([C@H]1C[C@H](C(=O)NCc2ccc(C(F)(F)F)nc2)C1)S(=O)(=O)c1cccc(C(F)(F)F)c1 [Compound 767]
b = CC(C)([C@H]1C[C@H](NC(=O)c2ncc(C(F)(F)F)cc2S(C)(=O)=O)C1)S(=O)(=O)c1cc(F)cc(C(F)(F)F)c1 [Compound 591]
c = CNC1(CC(=O)N[C@H]2C[C@H](C(C)(C)S(=O)(=O)c3cc(F)cc(C(F)(F)F)c3)C2)CCCCC1 [Compound 659]
Ask: Arrange items by their IC50 values in increasing order. Return value: ordered labels per request.
Reply: a, b, c
(a: 570 nM, b: 1150 nM, c: 1930 nM)

1 = CC(C)([C@H]1C[C@@H](NC(=O)c2ccc(C(F)(F)F)cc2S(C)(=O)=O)C1)S(=O)(=O)c1cccc(OC(F)(F)F)c1 [Compound 643]
2 = CC(C)([C@H]1C[C@H](NS(=O)(=O)c2ccc(F)c(C(F)(F)F)c2)C1)S(=O)(=O)c1cc(F)cc(C(F)(F)F)c1 [Compound 608]
Ask: Between the two listed entries 1 and 2 , which has its IC50 at the higher number? Respond with the label that goes with your answer.
Reply: 2

P = CC(C)(C1CC(CNC(=O)c2cc(C(F)(F)F)n[nH]2)C1)S(=O)(=O)c1cccc(C(F)(F)F)c1 (centres unmarked) [Compound 682]
Q = CC(C)([C@H]1C[C@@H](NC(=O)c2ccc(OCC(F)(F)F)nc2)C1)S(=O)(=O)c1cccc(C(F)(F)F)c1 [Compound 582]
Ask: Just tell me: smaller IC50 value, P or Q ? Respond with the label that goes with your answer.
Reply: Q
(Q: 190 nM, P: 530 nM)

1 = CC(C)S(=O)(=O)c1cc(C(F)(F)F)cnc1C(=O)N[C@H]1C[C@@H](C(C)(C)S(=O)(=O)c2cc(F)cc(C(F)(F)F)c2)C1 [Compound 586]
2 = N[C@@H]1CCCC[C@@H]1C(=O)NC[C@H]1C[C@H](S(=O)(=O)c2cccc(OC(F)(F)F)c2)C1 (single isomer, unassigned) [Compound 700]
3 = CC(C)([C@H]1C[C@H](NC(=O)CC2(N)CCCCC2)C1)S(=O)(=O)c1cccc(OC(F)(F)F)c1 [Compound 656]
4 = CC(C)([C@H]1C[C@@H](NC(=O)c2ccc(C(F)(F)F)cn2)C1)S(=O)(=O)c1cccc(C(F)(F)F)c1 [Compound 575]
Ask: Arrange items by their IC50 values in increasing order. Return value: ordered labels per request.
Reply: 4, 1, 3, 2
(4: 280 nM, 1: 480 nM, 3: 870 nM, 2: 1250 nM)

I = CC(C)([C@H]1C[C@H](NC(=O)c2ccc(C(F)(F)F)cc2S(C)(=O)=O)C1)S(=O)(=O)c1cc(F)cc(C(F)(F)F)c1 [Compound 592]
II = CC(C)([C@H]1C[C@H](C(=O)Nc2ccc(Cl)cn2)C1)S(=O)(=O)c1cccc(C(F)(F)F)c1 [Compound 761]
III = CNC1(CC(=O)N[C@H]2C[C@@H](C(C)(C)S(=O)(=O)c3cccc(C(F)(F)F)c3)C2)CCCCC1 [Compound 657]
Ask: Please list the entries, largest IC50 first. Return value: ordered labels per request.
Reply: III, I, II
(III: 2150 nM, I: 460 nM, II: 150 nM)

I = CC(C)([C@H]1C[C@@H](CNc2ccnc(C(F)(F)F)n2)C1)S(=O)(=O)c1cccc(C(F)(F)F)c1 [Compound 691]
II = CC(C)([C@H]1C[C@H](Nc2ccnc(C(F)(F)F)n2)C1)S(=O)(=O)c1cccc(OC(F)(F)F)c1 [Compound 647]
Ask: Just tell me: smaller IC50 value, I or II ? Respond with the label that goes with your answer.
Reply: I
(I: 530 nM, II: 860 nM)

a = CC(C)(C1CC(CNC(=O)c2ccc(C(F)(F)F)cc2S(C)(=O)=O)C1)S(=O)(=O)c1cccc(C(F)(F)F)c1 (centres unmarked) [Compound 612]
b = CC(C)S(=O)(=O)c1cc(C(F)(F)F)cnc1C(=O)N[C@H]1C[C@@H](CC(C)(C)S(=O)(=O)c2cccc(C(F)(F)F)c2)C1 [Compound 729]
Ask: Between the two listed entries a and b , which has its IC50 at the higher number? Respond with the label that goes with your answer.
Reply: a
